Each entry below carries its measured AC50, system: Cannabinoid receptor 1 (Homo sapiens, UniProt P21554). Also: assay procedure not described here.
Sequence (P21554 whole entry): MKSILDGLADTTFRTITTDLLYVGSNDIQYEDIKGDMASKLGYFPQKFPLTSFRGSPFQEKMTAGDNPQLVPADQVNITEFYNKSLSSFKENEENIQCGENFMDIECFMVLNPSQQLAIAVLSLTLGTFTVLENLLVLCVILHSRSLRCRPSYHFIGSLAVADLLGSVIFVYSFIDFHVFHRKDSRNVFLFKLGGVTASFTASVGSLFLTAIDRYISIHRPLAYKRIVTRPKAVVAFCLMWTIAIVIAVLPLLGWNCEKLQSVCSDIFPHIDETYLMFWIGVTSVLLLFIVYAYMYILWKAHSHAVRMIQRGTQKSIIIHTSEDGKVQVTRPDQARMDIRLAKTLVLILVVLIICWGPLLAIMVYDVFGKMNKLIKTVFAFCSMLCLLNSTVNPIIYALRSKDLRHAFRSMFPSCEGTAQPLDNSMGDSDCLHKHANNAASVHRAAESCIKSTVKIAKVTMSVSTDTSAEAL

For record COc1cc(N)c(Cl)cc1C(=O)NC1CCN(CCCOc2ccc(F)cc2)CC1OC (centres undefined) [CISAPRIDE] the listed AC50 is > 10 µM

---
For record COc1ccc([C@@H]2CC(=O)c3c(O)cc(O)cc3O2)cc1O the listed AC50 is > 10 µM

For record C=C1c2cccc(O)c2C(=O)C2=C(O)[C@]3(O)C(=O)C(C(N)=O)=C(O)[C@@H](N(C)C)[C@@H]3[C@@H](O)[C@H]12 the listed AC50 is > 10 µM

For record C[C@]12CCC(=O)C[C@@H]1CC[C@@H]1[C@@H]2CC[C@]2(C)[C@@H](O)CC[C@@H]12 the listed AC50 is > 30 µM

* * *

AC50 reference
targetEntity: Neuropeptide Y receptor type 1 (Homo sapiens); also: assay procedure not described here
Sequence (P25929 whole entry): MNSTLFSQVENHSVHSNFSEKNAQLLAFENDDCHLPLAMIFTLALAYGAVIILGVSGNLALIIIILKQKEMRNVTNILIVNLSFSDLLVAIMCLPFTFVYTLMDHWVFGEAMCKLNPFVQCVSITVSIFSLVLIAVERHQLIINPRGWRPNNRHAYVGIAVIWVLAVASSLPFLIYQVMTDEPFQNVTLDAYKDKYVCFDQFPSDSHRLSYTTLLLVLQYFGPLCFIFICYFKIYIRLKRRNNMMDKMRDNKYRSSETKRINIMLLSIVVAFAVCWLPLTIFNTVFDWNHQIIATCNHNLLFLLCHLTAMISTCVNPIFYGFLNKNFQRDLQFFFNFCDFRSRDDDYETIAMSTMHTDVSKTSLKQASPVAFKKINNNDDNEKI

Tested on Neuropeptide Y receptor type 1 (Homo sapiens), the item NC(=O)NC(=O)Cc1ccccc1 [PHENACEMIDE] showed AC50 equal to > 10 µM

Tested on Neuropeptide Y receptor type 1 (Homo sapiens), the item O=C1Nc2ccc(Cl)cc2C(c2ccccc2Cl)=NC1O (stereo unspecified) showed AC50 equal to > 30 µM

Tested on Neuropeptide Y receptor type 1 (Homo sapiens), the item O=C(O)c1cccnc1Nc1cccc(C(F)(F)F)c1 showed AC50 equal to > 10 µM

Tested on Neuropeptide Y receptor type 1 (Homo sapiens), the item O=C(/C=C/c1cccc(S(=O)(=O)Nc2ccccc2)c1)NO showed AC50 equal to > 30 µM

Tested on Neuropeptide Y receptor type 1 (Homo sapiens), the item CN1CCN=C(c2ccccc2)c2cc(Cl)ccc21 showed AC50 equal to > 30 µM

Tested on Neuropeptide Y receptor type 1 (Homo sapiens), the item CC1=C(C(=O)OC(C)C)C(c2cccc([N+](=O)[O-])c2)C(C(=O)OC2CN(C(c3ccccc3)c3ccccc3)C2)=C(N)N1 (stereo unspecified) showed AC50 equal to > 30 µM

---
Tested on Neuropeptide Y receptor type 1 (Homo sapiens), the item CCOC(=O)c1ncn2c1CN(C)C(=O)c1cc(F)ccc1-2 showed AC50 equal to > 30 µM

Tested on Neuropeptide Y receptor type 1 (Homo sapiens), the item CC(C)N(CCCCOCC(=O)O)c1cnc(-c2ccccc2)c(-c2ccccc2)n1 showed AC50 equal to > 30 µM

Tested on Neuropeptide Y receptor type 1 (Homo sapiens), the item CC(C)NC[C@H](O)COc1ccc(CC(N)=O)cc1 showed AC50 equal to > 30 µM

Tested on Neuropeptide Y receptor type 1 (Homo sapiens), the item OC[C@H]1O[C@@H](Oc2cc(O)cc(/C=C/c3ccc(O)cc3)c2)[C@H](O)[C@@H](O)[C@@H]1O showed AC50 equal to > 30 µM

Tested on Neuropeptide Y receptor type 1 (Homo sapiens), the item Oc1ccc(CCNCCCCCCNCCc2ccccc2)cc1O showed AC50 equal to > 30 µM

Tested on Neuropeptide Y receptor type 1 (Homo sapiens), the item CC(=O)Nc1ccc(CC(=O)O)cc1 showed AC50 equal to > 30 µM

* * *

Each entry below carries its measured AC50, system: Motilin receptor (Homo sapiens, UniProt O43193). Also: assay procedure not described here.
Sequence (O43193 whole entry): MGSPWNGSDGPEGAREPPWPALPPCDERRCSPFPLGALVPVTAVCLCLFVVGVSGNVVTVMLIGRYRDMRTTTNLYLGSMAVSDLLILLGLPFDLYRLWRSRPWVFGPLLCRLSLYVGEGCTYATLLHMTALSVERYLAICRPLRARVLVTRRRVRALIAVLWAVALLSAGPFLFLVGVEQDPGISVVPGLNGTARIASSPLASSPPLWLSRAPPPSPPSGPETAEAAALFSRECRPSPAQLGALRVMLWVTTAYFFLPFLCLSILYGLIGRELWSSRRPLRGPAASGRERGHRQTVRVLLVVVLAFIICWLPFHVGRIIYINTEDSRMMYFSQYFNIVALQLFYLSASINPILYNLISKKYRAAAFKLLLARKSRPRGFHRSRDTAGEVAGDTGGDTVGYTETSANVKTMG

Tested on Motilin receptor (Homo sapiens, UniProt O43193), the item CCOC(=O)c1ccc(C#Cc2ccc3c(c2)C(C)(C)CCS3)nc1 showed AC50 equal to > 10 µM

Tested on Motilin receptor (Homo sapiens, UniProt O43193), the item CCOc1cc([C@@H](CS(C)(=O)=O)N2C(=O)c3cccc(NC(C)=O)c3C2=O)ccc1OC showed AC50 equal to > 30 µM

Tested on Motilin receptor (Homo sapiens, UniProt O43193), the item CCOC(=O)c1c(CSc2ccccc2)n(C)c2cc(Br)c(O)c(CN(C)C)c12 showed AC50 equal to 3.7 µM

Tested on Motilin receptor (Homo sapiens, UniProt O43193), the item NC(=O)NC(=O)Cc1ccccc1 [PHENACEMIDE] showed AC50 equal to > 10 µM

Tested on Motilin receptor (Homo sapiens, UniProt O43193), the item CCC(=O)O[C@]1(C(=O)CCl)[C@@H](C)C[C@H]2[C@@H]3CCC4=CC(=O)C=C[C@]4(C)[C@@]3(F)[C@@H](O)C[C@@]21C [CLOBETASOL PROPIONATE] showed AC50 equal to 25 µM

* * *

targetEntity: UniProt P21731
Sequence (P21731 whole entry): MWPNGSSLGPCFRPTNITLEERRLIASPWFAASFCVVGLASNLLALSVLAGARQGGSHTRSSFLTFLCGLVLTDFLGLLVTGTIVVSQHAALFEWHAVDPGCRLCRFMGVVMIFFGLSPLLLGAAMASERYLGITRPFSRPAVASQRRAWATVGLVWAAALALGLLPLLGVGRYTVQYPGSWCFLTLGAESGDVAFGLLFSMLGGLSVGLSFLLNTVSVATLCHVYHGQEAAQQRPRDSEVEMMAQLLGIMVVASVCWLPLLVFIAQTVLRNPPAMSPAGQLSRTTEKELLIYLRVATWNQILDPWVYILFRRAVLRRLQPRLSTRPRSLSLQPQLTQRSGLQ
reportedMetric: AC50

Tested on UniProt P21731, the item CNC(=C[N+](=O)[O-])NCCSCc1csc(CN(C)C)n1 showed AC50 equal to > 10 µM

Tested on UniProt P21731, the item CN(C)Cc1nnc2n1-c1ccc(Cl)cc1C(c1ccccc1)=NC2 showed AC50 equal to > 10 µM

Tested on UniProt P21731, the item Cc1cccc(C)c1NC(=O)CC12CCCN1CCC2 [PILSICAINIDE] showed AC50 equal to > 30 µM

Tested on UniProt P21731, the item NC(=O)NC(=O)Cc1ccccc1 [PHENACEMIDE] showed AC50 equal to > 10 µM

Tested on UniProt P21731, the item CCN1CCCC1CNC(=O)c1cc(S(=O)(=O)CC)ccc1OC (stereo not given) [SULTOPRIDE] showed AC50 equal to > 30 µM

Tested on UniProt P21731, the item CCCNC(=O)NS(=O)(=O)c1ccc(Cl)cc1 [CHLORPROPAMIDE] showed AC50 equal to > 30 µM

Tested on UniProt P21731, the item CC[C@H](C)C(=O)O[C@H]1C[C@@H](C)C=C2C=C[C@H](C)[C@H](CC[C@@H]3C[C@@H](O)CC(=O)O3)[C@H]21 showed AC50 equal to 12 µM

Tested on UniProt P21731, the item Cc1ccc(C)c(OCCCC(C)(C)C(=O)O)c1 showed AC50 equal to > 30 µM

Tested on UniProt P21731, the item COc1ccccc1OC1(C)OC(=O)c2ccccc2O1 (stereo not given) showed AC50 equal to > 30 µM

Tested on UniProt P21731, the item CCc1nc(N)nc(N)c1-c1ccc(Cl)cc1 showed AC50 equal to > 10 µM

Tested on UniProt P21731, the item CN(CCOc1ccc(CC2SC(=O)NC2=O)cc1)c1ccccn1 (stereo not given) showed AC50 equal to > 30 µM

* * *

AC50 reference
targetEntity: 5-hydroxytryptamine receptor 2B (Homo sapiens, UniProt P41595); also: assay procedure not described here
Sequence (P41595 whole entry): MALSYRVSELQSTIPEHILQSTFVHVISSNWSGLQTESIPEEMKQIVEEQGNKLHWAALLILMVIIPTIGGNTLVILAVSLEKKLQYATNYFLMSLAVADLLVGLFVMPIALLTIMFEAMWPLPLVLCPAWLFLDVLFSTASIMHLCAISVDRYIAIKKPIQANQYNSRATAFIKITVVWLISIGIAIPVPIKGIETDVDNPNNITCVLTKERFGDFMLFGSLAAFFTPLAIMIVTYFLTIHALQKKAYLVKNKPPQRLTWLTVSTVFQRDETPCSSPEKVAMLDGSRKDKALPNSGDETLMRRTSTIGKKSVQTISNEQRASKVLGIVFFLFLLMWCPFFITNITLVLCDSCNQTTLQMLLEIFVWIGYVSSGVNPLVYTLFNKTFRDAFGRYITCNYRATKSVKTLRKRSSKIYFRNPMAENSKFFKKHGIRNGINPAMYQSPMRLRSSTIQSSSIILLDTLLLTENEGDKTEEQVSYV
Format: functional, cell-based

Previously resolved entries follow.
Tested on 5-hydroxytryptamine receptor 2B (Homo sapiens, UniProt P41595), the item COc1cc2[nH]c(C)c(CCN3CCN(c4ccccc4)CC3)c2cc1OC showed AC50 equal to 0.12 µM

Tested on 5-hydroxytryptamine receptor 2B (Homo sapiens, UniProt P41595), the item O=C(O)c1ccc(NC(=O)[C@H](Cc2ccc(O)cc2)NC(=O)c2ccccc2)cc1 [BENTIROMIDE] showed AC50 equal to > 10 µM

Tested on 5-hydroxytryptamine receptor 2B (Homo sapiens, UniProt P41595), the item O=C(O)c1cccnc1Nc1cccc(C(F)(F)F)c1 showed AC50 equal to > 10 µM

Tested on 5-hydroxytryptamine receptor 2B (Homo sapiens, UniProt P41595), the item CCN1CC(CCN2CCOCC2)C(c2ccccc2)(c2ccccc2)C1=O (centres undefined) showed AC50 equal to > 30 µM

Tested on 5-hydroxytryptamine receptor 2B (Homo sapiens, UniProt P41595), the item CCOC(=O)c1ncn2c1CN(C)C(=O)c1cc(F)ccc1-2 showed AC50 equal to > 30 µM

---
Tested on 5-hydroxytryptamine receptor 2B (Homo sapiens, UniProt P41595), the item Cc1ccccc1-n1c(CF)nc2ccc(N)cc2c1=O showed AC50 equal to > 10 µM

Tested on 5-hydroxytryptamine receptor 2B (Homo sapiens, UniProt P41595), the item CCOC(=O)c1ccc(C#Cc2ccc3c(c2)C(C)(C)CCS3)nc1 showed AC50 equal to > 10 µM

Tested on 5-hydroxytryptamine receptor 2B (Homo sapiens, UniProt P41595), the item CCc1cc2c(s1)-n1c(C)nnc1CN=C2c1ccccc1Cl showed AC50 equal to > 30 µM

Tested on 5-hydroxytryptamine receptor 2B (Homo sapiens, UniProt P41595), the item Oc1cc(O)c(Cl)cn1 showed AC50 equal to > 30 µM

Tested on 5-hydroxytryptamine receptor 2B (Homo sapiens, UniProt P41595), the item CC(C)(O/N=C(\C(=O)N[C@@H]1C(=O)N2C(C(=O)[O-])=C(C[n+]3ccccc3)CS[C@H]12)c1csc(N)n1)C(=O)O showed AC50 equal to > 300 µM

Tested on 5-hydroxytryptamine receptor 2B (Homo sapiens, UniProt P41595), the item CO/N=C(\C(=O)N[C@@H]1C(=O)N2C(C(=O)O)=C(CSc3nc(=O)c(=O)[nH]n3C)CS[C@H]12)c1csc(N)n1 showed AC50 equal to > 30 µM

Tested on 5-hydroxytryptamine receptor 2B (Homo sapiens, UniProt P41595), the item OC[C@H]1O[C@@H](n2cnc3c2NC=NC[C@H]3O)C[C@@H]1O showed AC50 equal to > 30 µM

Tested on 5-hydroxytryptamine receptor 2B (Homo sapiens, UniProt P41595), the item CC(CN(C)C)C(C)(O)Cc1ccc(Cl)cc1 (centres undefined) showed AC50 equal to > 10 µM

Tested on 5-hydroxytryptamine receptor 2B (Homo sapiens, UniProt P41595), the item NNC(=O)c1ccncc1 showed AC50 equal to > 30 µM
